# credit: patent US20250066503A1

- systemUnderTest: T1, soluble human CD3 epsilon chain (human, UniProt P07766 23-126)
- T1 construct: also called CD3ε
- T1 sequence (P07766 23-126 limits assumed): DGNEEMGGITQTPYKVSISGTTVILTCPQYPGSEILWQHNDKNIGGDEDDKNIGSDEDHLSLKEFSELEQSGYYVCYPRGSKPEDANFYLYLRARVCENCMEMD
- testProtocol: SPR
pKd: −log10 of the molar value.

binder	pKd
TR01H094-E22Hh/none-Hi-Kn010G3/L0011-k0 (antibody, V domains shown, one-arm) VH: QVQLVESGGGLVQPGRSLRLSCAASGFTFSNAWMHWVRQAPGKGLEWVAQIKDKSQNYATYYAESVSGRFTISRDDSKNSLYLQMNSLKTEDTAVYYCRYVHYAAGYGVDAWGQGTTVTVSS VL: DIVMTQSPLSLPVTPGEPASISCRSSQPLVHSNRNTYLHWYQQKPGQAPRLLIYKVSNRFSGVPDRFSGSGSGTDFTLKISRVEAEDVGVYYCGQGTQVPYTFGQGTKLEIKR	7.15
TR01H067-E22Hh/none-Hi-Kn010G3/TR01L019-k0 (antibody, V domains shown, one-arm) VH: QVQLVESGGGLVQPGRSLRLSCAASGFTFSNAWMHWVRQAPGKGLEWVAQIKDKSQNYATYYAESVKGRFTISRDDSKNSLYLQMNSLKTEDTAVYYCRYVHYAASYGVDAWGQGTTVTVSS VL: DIVMTQSPLSLPVTPGEPASISCQASESPVHSNRNTYLHWYLQKPGQSPQLLIYKVSNRFSGVPDRFSGSGSGTDFTLKISRVEAEDVGVYYCYQGTQVPYTFGQGTKLEIK	7.92
TR01H015-E22Hh/none-Hi-Kn010G3/TR01L006-k0 (antibody, human IgG1, L234A L235A, N297A, V domains shown, one-arm) VH: QVQLVESGGGLVQPGRSLRLSCAASGFTFSNAWMHWVRQAPGKGLEWVAQIKGKSNNYATYYAESVKGRFTISRADSKNSIYLQMNSLKTEDTAVYYCRYVHYSASYGVDIWGQGTTVTVSS VL: DIVMTQSPLSLPVTPGEPASISCQASESLVHSNRNTYLHWYLQKPGQSPQLLIYKVSNRFSGVPDRFSGSGSGTDFTLKISRVEAEDVGVYYCGQGTQVPYTFGQGTKVEIE	7.03
TR01H056-E22Hh/none-Hi-Kn010G3/L0000-k0 (antibody, V domains shown, one-arm) VH: QVQLVESGGGLVQPGRSLRLSCAASGFTFSNAWMHWVRQAPGKGLEWVAQIKDKSQNYATYYAESVKGRFTISRDDSKNSLYLQMNSLKTEDTAVYYCRYVHYSASYGVDIWGQGTTVTVSS VL: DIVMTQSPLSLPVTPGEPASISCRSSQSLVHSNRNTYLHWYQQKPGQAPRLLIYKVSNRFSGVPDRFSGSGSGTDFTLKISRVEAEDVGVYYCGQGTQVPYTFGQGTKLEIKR	7.14
TR01H067-E22Hh/none-Hi-Kn010G3/L0011-k0 (antibody, V domains shown, one-arm) VH: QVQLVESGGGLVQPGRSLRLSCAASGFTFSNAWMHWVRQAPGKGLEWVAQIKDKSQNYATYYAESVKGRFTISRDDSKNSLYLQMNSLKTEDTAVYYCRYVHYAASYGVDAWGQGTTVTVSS VL: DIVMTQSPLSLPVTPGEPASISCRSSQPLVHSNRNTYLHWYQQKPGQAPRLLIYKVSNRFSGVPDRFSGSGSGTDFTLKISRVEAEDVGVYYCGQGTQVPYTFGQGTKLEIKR	7.14
